test system: UO-31; assay: NCI tumour cell line growth inhibition, 48 h
Active and inactive are the calls of the source. No stated cut-off is given here; in the data, active = GI50 up to about 1.1 µM and inactive = higher.

molecule: Cc1c(O)c(OC2OC(CO)C(O)C(O)C2O)cc2c1CC[C@@H]1C2(C)C(=O)C[C@]2(C)[C@@H]([C@@](C)(O)C(O)CCC(C)(C)O)[C@H](O)C[C@@]12C (stereo partly specified)
target of assay: UO-31
GI50: > 100 µM (inactive)
//
molecule: CCCCN(CC)C(=O)C(=O)C1C(=O)Nc2ccccc2[S+]1[O-] (stereo unspecified)
target of assay: UO-31
GI50: > 100 µM (inactive)
//
molecule: CCCCNC(=O)NNC(=O)c1cc(/C=C/c2cccc([N+](=O)[O-])c2)ncn1
target of assay: UO-31
GI50: > 100 µM (inactive)
//
molecule: CN(C)CCCOCCn1c2c(c3ccccc31)CCCC2
target of assay: UO-31
GI50: 17.1 µM (inactive)
//
molecule: COc1ccc(-n2c(C)nc3ccc(NC(=S)Nc4ccccc4)cc3c2=O)cc1
target of assay: UO-31
GI50: > 100 µM (inactive)
//
molecule: CN1CC=C(C#CC(C)(C)O)CC1
target of assay: UO-31
GI50: > 37.5 µM (inactive)
//
molecule: CCCCc1c2c(nc3c1CC/C(=C\c1ccccc1)C3=O)CCCC2
target of assay: UO-31
GI50: 6.05 µM (inactive)
//
molecule: CCOC(=O)c1sc2nc(SC)nc3c2c1NCN3c1ccc(F)c(F)c1
target of assay: UO-31
GI50: 22.1 µM (inactive)
//
molecule: Cc1ccc(C2=CC(=O)OC(C[P+](c3ccccc3)(c3ccccc3)c3ccccc3)(c3ccccc3)O2)cc1 (stereo unspecified)
target of assay: UO-31
GI50: 16.3 µM (inactive)
//
molecule: Oc1ccc(Cc2cc(Cc3ccc(O)cc3)cc(Cc3ccc(O)cc3)c2)cc1
target of assay: UO-31
GI50: > 50 µM (inactive)
//
molecule: CC(=O)OC1CC2C(C)(C)C(=O)C=C[C@]2(C)C2CCC3(C)C(c4ccoc4)C(=O)[C@H]4O[C@]43[C@]12C (stereo partly specified)
target of assay: UO-31
GI50: 18.7 µM (inactive)

====

test system: U-251; experiment: NCI tumour cell line growth inhibition, 48 h
Activity calls are given as the source filed them. Cut-off read from the data, not from the text of the source: active = GI50 up to about 1.1 µM and inactive = higher. Where a SMILES comes first, the peptide text is derived from it. [ ]: non-standard residue; d: D form. The star is where a group is joined. ξ: configuration not given here. ξD = NC(CC(=O)O)C(=O)O; Boc = CC(C)(C)OC(=O)*; Aib = CC(C)(N)C(=O)O; OtBu = CC(C)(C)O*

compound: COC(=O)c1nn2ccc3ccccc3c2c1C(=O)OC
GI50: > 100 µM (inactive)
//
compound: O=C1NC(=O)/C(=C/c2ccc(S(=O)(=O)N/N=C/c3ccc(Cl)cc3)cc2)N1
GI50: > 100 µM (inactive)
//
compound: C=C1C(C)C2C(Cc3ccccc3)NC(=O)C23C(OC(C)=O)C=CC(C)(O)C(=O)C(C)C/C=C/C3C1O (stereo not given)
GI50: 0.0925 µM (active)
//
compound: C=CC[C@]12C=C(OC)[C@@H](O)[C@](OC)(C(c3cc(OC)c4c(c3)OCO4)[C@H]1C)[C@H]2OC(C)=O (stereo not given in full)
GI50: > 100 µM (inactive)
//
compound: Cc1ccccc1C(=O)Oc1ccc(O)cc1
GI50: > 100 µM (inactive)
//
compound: O=C1c2ccccc2C(=O)N1NC1=NCCN1
GI50: > 100 µM (inactive)
//
compound: CCOC(=O)Cc1c(C)c2cc(C(=O)c3ccccc3)c(O)cc2oc1=O
GI50: 20.8 µM (inactive)
//
compound: CCOC(=O)c1ccc(/N=N/N(C)C(=O)C(C)N)cc1 (stereo not given)
GI50: > 100 µM (inactive)
//
compound: COC(=O)C(C)(C)NC(=O)C(C)(C)NC(=O)C(CC(=O)OC(C)(C)C)NC(=O)OC(C)(C)C (stereo not given) (Boc-[ξD](OtBu)-[Aib]-[Aib]-OMe)
GI50: > 100 µM (inactive)
//
compound: CCC1OC(=O)CC(O)C(C)C(OC2OC(C)CC(N(C)C)C2O)C(CC=O)CC(C)C(=O)/C=C/C2(C)OC2C1C (stereo not given)
GI50: 14.8 µM (inactive)
//
compound: Cc1cc(=O)oc2c(C)c(O)ccc12
GI50: > 100 µM (inactive)
//
compound: O=[N+]([O-])c1ccc(OCCNc2cccc3ccccc23)cc1
GI50: 94.6 µM (inactive)
//
compound: CS(=O)(=O)Nc1ccc(Nc2c3ccccc3nc3ccccc23)cc1
GI50: 1.74 µM (inactive)
//
compound: CC1=C(C)C(=O)C2=C(OCCCO2)C1=O
GI50: > 100 µM (inactive)
//
compound: CC(=O)OC(C)(C)CCC(=O)[C@](C)(O)[C@H]1[C@H](O)C[C@@]2(C)[C@@H]3CCc4c(cc(OC5OC(CO)C(O)C(O)C5O)c(O)c4C)C3(C)C(=O)C[C@]12C (stereo not given in full)
GI50: > 100 µM (inactive)
